Target: Protein kinase C (PKC)
Assay: Inhibitory activity was determined against protein kinase C (PKC) from porcine brain
Parameters: species or system Sus scrofa
ENDPOINT: IC50

Reference set, count: 3
1. O=C1c2cc(Nc3ccccc3)c(Nc3ccccc3)cc2C(=O)N1c1ccccc1: > 100 µM
2. COc1ccc(Nc2cc3c(cc2Nc2ccc(OC)cc2)C(=O)NC3=O)cc1: 460 µM
3. CN1C(=O)c2cc(Nc3ccccc3)c(Nc3ccccc3)cc2C1=O: > 100 µM

Report measured IC50; entry is O=C1NC(=O)c2cc(Nc3ccc(-c4ccccc4)cc3)c(Nc3ccc(-c4ccccc4)cc3)cc21
> 500 µM

Report measured IC50; entry is Cc1ccc(Nc2cc3c(cc2Nc2ccc(C)cc2)C(=O)NC3=O)cc1
> 100 µM

Report measured IC50; entry is CC(=O)N(c1ccccc1)c1cc2c(cc1Nc1ccccc1)C(=O)NC2=O
> 100 µM

Report measured IC50; entry is COC(=O)c1cc(Nc2ccccc2)c(Nc2ccccc2)cc1C(=O)OC
> 500 µM

Report measured IC50; entry is COC(=O)c1cc(Nc2ccc(F)cc2)c(Nc2ccc(F)cc2)cc1C(=O)OC
> 500 µM

Report measured IC50; entry is N#Cc1ccc(Nc2cc3c(cc2Nc2ccc(C#N)cc2)C(=O)NC3=O)cc1
> 100 µM

Report measured IC50; entry is CCN(CC)c1ccc(Nc2cc3c(cc2Nc2ccc(N(CC)CC)cc2)C(=O)NC3=O)cc1
> 500 µM

Report measured IC50; entry is COc1ccc(Nc2cc3c(cc2Nc2ccccc2)C(=O)NC3=O)cc1
> 100 µM

---

Target: Platelet-derived growth factor receptor (Mus musculus, UniProt P05622+P26618)
Experiment: Inhibition of PDGF-dependent autophosphorylation of PDGF-R in mouse BALB/c3T3 cells
Assay type: functional, cell-based
ENDPOINT: IC50 (µM)
Respond with the bare value in µM.

Report measured IC50; entry is O=C1NC(=O)c2cc(Nc3ccccc3)c(Nc3ccccc3)cc21
100

---

Biological target: Proto-oncogene tyrosine-protein kinase Src (Homo sapiens, UniProt P12931)
Sequence (P12931 2-536 limits assumed): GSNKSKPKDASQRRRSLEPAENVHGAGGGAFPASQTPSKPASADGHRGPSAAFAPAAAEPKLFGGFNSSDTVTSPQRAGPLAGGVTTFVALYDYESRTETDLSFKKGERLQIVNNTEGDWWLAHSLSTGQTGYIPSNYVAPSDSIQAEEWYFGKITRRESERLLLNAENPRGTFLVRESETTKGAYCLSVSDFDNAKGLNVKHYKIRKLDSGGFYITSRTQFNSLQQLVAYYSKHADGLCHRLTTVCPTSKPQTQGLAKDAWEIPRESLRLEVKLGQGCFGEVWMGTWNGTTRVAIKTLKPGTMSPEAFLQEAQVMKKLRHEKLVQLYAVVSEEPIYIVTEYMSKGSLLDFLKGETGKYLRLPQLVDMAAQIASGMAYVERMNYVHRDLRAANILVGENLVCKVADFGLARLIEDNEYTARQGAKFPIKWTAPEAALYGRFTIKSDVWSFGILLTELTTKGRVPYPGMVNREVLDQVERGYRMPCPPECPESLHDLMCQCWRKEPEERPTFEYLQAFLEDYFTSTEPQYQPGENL
ENDPOINT: IC50 (µM)
Respond with the bare value in µM.

Answer with IC50 of COc1ccc(Nc2cc3c(cc2Nc2ccccc2)C(=O)NC3=O)cc1 measured for Proto-oncogene tyrosine-protein kinase Src (Homo sapiens, UniProt P12931).
64

---

Biological target: Protein kinase C (PKC)
Assay: Inhibitory activity was determined against protein kinase C (PKC) from porcine brain
Design: species or system Sus scrofa
ENDPOINT: IC50 (µM)

1) O=C1NC(=O)c2cc(Nc3ccc(O)cc3)c(Nc3ccc(O)cc3)cc21: 75

P: O=C1NC(=O)c2cc3c(cc21)N(c1ccccc1)CCN3c1ccccc1
Q: O=C1NC(=O)c2cc(Nc3ccccc3)c(Nc3ccccc3)cc21
R: O=C1NC(=O)C(c2c[nH]c3ccccc23)=C1c1c[nH]c2ccccc12
S: O=C1NC(=O)c2cc(Nc3ccc(F)cc3)c(Nc3ccc(F)cc3)cc21
Reorder the items by IC50, least to greatest. Give your ranking as a list of the labels in the requested order.
R, S, Q, P

---

Biological target: Epidermal growth factor receptor (Homo sapiens)
Sequence (P00533 whole entry): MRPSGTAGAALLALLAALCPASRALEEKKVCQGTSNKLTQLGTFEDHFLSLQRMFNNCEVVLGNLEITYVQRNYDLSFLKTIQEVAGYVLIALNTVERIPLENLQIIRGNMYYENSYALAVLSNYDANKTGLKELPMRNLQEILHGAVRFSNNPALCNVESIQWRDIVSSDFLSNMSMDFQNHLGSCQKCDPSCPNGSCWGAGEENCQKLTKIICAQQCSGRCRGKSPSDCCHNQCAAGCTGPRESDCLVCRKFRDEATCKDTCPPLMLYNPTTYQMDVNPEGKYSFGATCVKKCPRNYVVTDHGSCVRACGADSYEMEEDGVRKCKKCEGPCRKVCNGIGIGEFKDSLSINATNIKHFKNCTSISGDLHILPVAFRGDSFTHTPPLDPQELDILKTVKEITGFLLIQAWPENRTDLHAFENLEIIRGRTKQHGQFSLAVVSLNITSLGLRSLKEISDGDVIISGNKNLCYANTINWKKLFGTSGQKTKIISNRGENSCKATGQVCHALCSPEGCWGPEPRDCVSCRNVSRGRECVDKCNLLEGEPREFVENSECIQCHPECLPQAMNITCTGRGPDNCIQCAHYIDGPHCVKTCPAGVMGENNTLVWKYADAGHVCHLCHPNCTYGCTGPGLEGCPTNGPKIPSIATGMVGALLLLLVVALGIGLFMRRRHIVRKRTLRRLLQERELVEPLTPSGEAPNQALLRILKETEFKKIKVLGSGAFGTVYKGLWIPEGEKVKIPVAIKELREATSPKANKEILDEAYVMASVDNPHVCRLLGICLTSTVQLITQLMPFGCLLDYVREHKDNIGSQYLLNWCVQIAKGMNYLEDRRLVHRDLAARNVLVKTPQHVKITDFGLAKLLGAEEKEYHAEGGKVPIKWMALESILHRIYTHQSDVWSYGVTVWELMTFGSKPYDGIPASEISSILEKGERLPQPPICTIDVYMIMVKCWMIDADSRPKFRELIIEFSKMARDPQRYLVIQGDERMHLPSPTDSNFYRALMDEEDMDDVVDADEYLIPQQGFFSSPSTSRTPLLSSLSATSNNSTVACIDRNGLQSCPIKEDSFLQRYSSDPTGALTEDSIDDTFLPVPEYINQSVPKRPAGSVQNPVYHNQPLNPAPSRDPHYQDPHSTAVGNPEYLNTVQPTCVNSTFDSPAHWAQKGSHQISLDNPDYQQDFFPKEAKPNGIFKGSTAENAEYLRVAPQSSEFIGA
Assay: Inhibitory activity against recombinant tyrosine kinase EGF-R (EGF-R ICD)
pIC50: −log10 of the molar value.
ENDPOINT: pIC50

Report measured pIC50; entry is O=C1NC(=O)c2cc(NC3CCCCC3)c(NC3CCCCC3)cc21
< 4.30

---

Test: Inhibition of BALB/MK mouse epidermal keratinocyte proliferation
Assay type: functional
ENDPOINT: IC50

Report measured IC50; entry is O=C1c2cc(Nc3ccccc3)c(Nc3ccccc3)cc2C(=O)N1c1ccccc1
> 50 µM

---

Target: Tyrosine-protein kinase ABL (Homo sapiens, UniProt P00519+P42684)
Test: Inhibitory activity against v-abl tyrosine kinase
Format: protein assay
IC50 values, listed per item

Reference set, count: 3
1) CN(c1ccccc1)c1cc2c(cc1N(C)c1ccccc1)C(=O)NC2=O: > 50 µM
2) O=C1NC(=O)c2cc(Nc3ccccc3)c(Nc3ccccc3)cc21: > 50 µM
3) CN(c1ccccc1)c1cc2c(cc1Nc1ccccc1)C(=O)NC2=O: > 50 µM

Report measured IC50; entry is O=C1NC(=O)c2cc(Nc3ccc(O)cc3)c(Nc3ccc(O)cc3)cc21
12 µM

Report measured IC50; entry is O=C1NC(=O)C(c2c[nH]c3ccccc23)=C1c1c[nH]c2ccccc12
20 µM

Report measured IC50; entry is COc1ccc(Nc2cc3c(cc2Nc2ccccc2)C(=O)NC3=O)cc1
> 100 µM

Report measured IC50; entry is COc1ccc(Nc2cc3c(cc2Nc2ccc(OC)cc2)C(=O)NC3=O)cc1
> 50 µM

---

IC50 values, listed per item
Target: Protein kinase C (PKC)
Test: Inhibitory activity was determined against protein kinase C (PKC) from porcine brain
Design: species or system Sus scrofa

Reference set, count: 4
1. CN(c1ccccc1)c1cc2c(cc1Nc1ccccc1)C(=O)NC2=O: > 500 µM
2. O=C1NC(=O)c2cc(Sc3ccccc3)c(Sc3ccccc3)cc21: > 50 µM
3. O=C1NC(=O)c2cc(Nc3ccc(I)cc3)c(Nc3ccc(I)cc3)cc21: > 500 µM
4. O=C1NC(=O)c2cc(NC3CCCCC3)c(NC3CCCCC3)cc21: > 100 µM

Now consider a different compound.
Report measured IC50; entry is CN(c1ccccc1)c1cc2c(cc1N(C)c1ccccc1)C(=O)NC2=O
> 500 µM

---

IC50 values, listed per item
Target: Tyrosine-protein kinase ABL (Homo sapiens, UniProt P00519+P42684)
Experiment: Inhibitory activity against v-abl tyrosine kinase
Format: protein assay

Reference set, count: 4
1. O=C1NC(=O)c2cc(Nc3ccc(F)cc3)c(Nc3ccc(F)cc3)cc21: > 50 µM
2. CCN(CC)c1ccc(Nc2cc3c(cc2Nc2ccc(N(CC)CC)cc2)C(=O)NC3=O)cc1: > 50 µM
3. Cc1ccc(Nc2cc3c(cc2Nc2ccc(C)cc2)C(=O)NC3=O)cc1: > 100 µM
4. O=C1NC(=O)c2cc(NC3CCCCC3)c(NC3CCCCC3)cc21: > 50 µM

Now consider a different compound.
Report measured IC50; entry is O=C1NC(=O)c2cc3c(cc21)N(c1ccccc1)CCN3c1ccccc1
> 50 µM

Cited source for all entries: ChEMBL document CHEMBL1127678
